Tested on: Chlamydomonas reinhardtii
assay_comment: Control of Chlamydomonas reinhardtii by purified compounds, fluorescence at 680 nm
Type: cell-based
condition_set: 11 μL of sample per 750 μL of algae, 72 hours
reported_metric: Visual

molecule: CC(=O)OC(C)/C=C\C(=O)NC1CC(C)C(C/C=C(C)/C=C/C2OC(C)(O)C(O)C3(CO3)C2O)OC1C (centres unmarked)
reported_result: Not Active

molecule: COC(=O)c1nc(CC(C)C)oc1-c1c[nH]c2ccccc12
reported_result: Active

molecule: C/C=C1\NC(=O)[C@H]2CSSCC/C=C/[C@H](CC(=O)N[C@H](C(C)C)C(=O)N2)OC(=O)[C@H](C(C)C)NC1=O
reported_result: Active

molecule: CCC(=O)OC(C)/C=C\C(=O)NC1CC(C)C(C/C=C(C)/C=C/C2OC(C)(O)C(O)C(O)(CO)C2O)OC1C (centres unmarked) [Templamide A]
reported_result: Not Active

molecule: CCC(=O)OC(C)/C=C\C(=O)NC1CC(C)C(C/C=C(C)/C=C/C2OC(C)(O)C(O)C3(CO3)C2O)OC1C (centres unmarked) [Templamide B]
reported_result: Active
